Could you please report measured EC50 for the items listed next?
- Study system: μ-opioid receptor (MOR) (Homo sapiens, UniProt P35372)
- Sequence (P35372 whole entry): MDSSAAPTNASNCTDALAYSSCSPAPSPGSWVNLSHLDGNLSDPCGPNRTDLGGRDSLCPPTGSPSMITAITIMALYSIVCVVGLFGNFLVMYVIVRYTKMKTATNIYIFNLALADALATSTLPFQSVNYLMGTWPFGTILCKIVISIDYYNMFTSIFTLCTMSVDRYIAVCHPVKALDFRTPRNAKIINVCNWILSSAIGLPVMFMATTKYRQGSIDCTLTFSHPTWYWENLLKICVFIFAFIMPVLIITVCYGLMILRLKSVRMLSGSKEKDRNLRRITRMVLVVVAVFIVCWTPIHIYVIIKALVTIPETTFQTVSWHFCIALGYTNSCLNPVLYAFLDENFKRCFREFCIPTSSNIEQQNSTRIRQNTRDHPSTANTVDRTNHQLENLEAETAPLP
- Procedure text: MOR agonist cAMP assay (HitHunter cAMP, forskolin-stimulated)

Briefly, EC50 measured for CCCC[C@@H](C(=O)O)N(C)C(=O)C[C@H](Cc1ccc(F)cc1)NC(=O)CNC(=O)[C@@H](C)NC(=O)[C@@H](N)Cc1c(C)cc(O)cc1C : < 1 nM

Value of measured EC50 for the entry Cc1cc(C(N)=O)cc(C)c1C[C@H](N)C(=O)N[C@H](C)C(=O)NCC(=O)N[C@H](CC(=O)N(C)[C@@H](Cc1ccccc1)C(=O)O)Cc1ccccc1 : 1 to 10 nM

Item: CC[C@H](C)[C@@H](C(=O)O)N(C)C(=O)C[C@H](Cc1ccccc1)NC(=O)CNC(=O)[C@H](NC(=O)[C@@H](N)Cc1c(C)cc(O)cc1C)[C@H](C)O | EC50: < 1 nM

Entry CC[C@H](C)[C@@H](C(=O)O)N(C)C(=O)C[C@H](Cc1ccccc1)NC(=O)CNC(=O)[C@@H](CCC(=O)O)NC(=O)[C@@H](N)Cc1c(C)cc(O)cc1C — recorded EC50 = 1 to 10 nM

So, CCCC[C@@H](C(=O)O)N(C)C(=O)C[C@H](Cc1ccc(C)cc1)NC(=O)CNC(=O)[C@@H](C)NC(=O)[C@@H](N)Cc1c(C)cc(C(N)=O)cc1C ? Its EC50 was < 1 nM

# compound CCCC[C@@H](C(=O)O)N(C)C(=O)C[C@H](Cc1ccccc1F)NC(=O)CNC(=O)[C@@H](C)NC(=O)[C@@H](N)Cc1c(C)cc(O)cc1C ; its EC50 = < 1 nM

---

- Procedure text: SIF assay (stability in simulated intestinal fluid)
- Type: in vitro ADME
- Condition parameters: simulated intestinal fluid (SIF) with pancreatin; simulated intestinal fluid, pH 6.8, pancreatin, 37° C., 20 μM
Assay readout: half-life at 20 μM

Entry under test: C[C@@H](NC(=O)[C@H](N)Cc1ccc(O)cc1)C(=O)NCC(=O)N[C@H](CC(=O)N(C)CC(N)=O)Cc1ccccc1 . Its half-life at 20 μM was 6 to 24 h

Entry Cc1cc(O)cc(C)c1C[C@H](N)C(=O)N[C@H](C)C(=O)NCC(=O)N[C@H](CC(=O)N(C)[C@@H](C)C(=O)O)Cc1ccccc1 , half-life at 20 μM reported as > 24 h

The measured half-life at 20 μM associated with C[C@@H](NC(=O)[C@@H](N)Cc1ccc(O)c(O)c1)C(=O)NCC(=O)N[C@H](CC(=O)N(C)CC(N)=O)Cc1ccccc1 reads 6 to 24 h

---

- Study system: δ-opioid receptor (DOR) (Homo sapiens)
- Sequence (P41143 whole entry): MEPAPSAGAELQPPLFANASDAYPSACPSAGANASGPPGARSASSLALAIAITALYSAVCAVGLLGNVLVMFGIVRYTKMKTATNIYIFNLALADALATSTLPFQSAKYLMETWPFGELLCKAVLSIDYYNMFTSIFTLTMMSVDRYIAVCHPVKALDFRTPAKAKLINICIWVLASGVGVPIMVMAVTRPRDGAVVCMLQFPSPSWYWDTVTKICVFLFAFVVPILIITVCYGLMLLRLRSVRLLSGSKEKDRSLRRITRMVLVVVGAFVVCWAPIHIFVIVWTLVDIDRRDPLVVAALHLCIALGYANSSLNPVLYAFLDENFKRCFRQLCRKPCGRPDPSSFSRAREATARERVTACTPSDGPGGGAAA
- Procedure text: DOR agonist cAMP assay (HitHunter cAMP, forskolin-stimulated)
pEC50: −log10 of the molar value. Square brackets hold non-standard residues; d marks the D form. Peptide text beside a SMILES is read from it. Bip = N[C@@H](Cc1ccc(-c2ccccc2)cc1)C(=O)O; Dmt = Cc1cc(O)cc(C)c1C[C@H](N)C(=O)O
Consider the following molecules; for each one, report its pEC50.

Note to self: pEC50 recorded for Cc1cc(O)cc(C)c1C[C@H](N)C(=O)N[C@H](CCCNC(=N)N)C(=O)N[C@@H](Cc1ccc(-c2ccccc2)cc1)C(=O)N[C@@H](CCCCN)C(N)=O [compound 3] (H-[Dmt][dR][Bip]K-NH2) was < 6.70

For reference, reported pEC50 for CCCC[C@@H](C(=O)O)N(C)C(=O)C[C@H](Cc1ccc(I)cc1)NC(=O)CNC(=O)[C@@H](C)NC(=O)[C@@H](N)Cc1c(C)cc(O)cc1C stands at > 9.00

Per the records, this molecule ( Cc1cc(O)cc(C)c1C[C@H](N)C(=O)N[C@H](CCC(=O)O)C(=O)NCC(=O)N[C@H](CC(=O)N(C)CC(N)=O)Cc1ccccc1 ) has pEC50 equal to 8.00 to 9.00

Per the records, this molecule ( Cc1cc(O)cc(C)c1C[C@H](N)C(=O)N1Cc2ccccc2C[C@H]1C(=O)NCC(=O)N[C@H](CC(=O)N(C)CC(N)=O)Cc1ccccc1 ) has pEC50 equal to 6.70 to 7.30

Measured pEC50 of CCCCCCCCCCCCCCCCN(CC(N)=O)C(=O)C[C@H](Cc1ccccc1)NC(=O)CNC(=O)[C@@H](C)NC(=O)[C@@H](N)Cc1c(C)cc(O)cc1C : 8.00 to 9.00
